# TEST_DETAILS: wn = mass fraction of the nth substance listed
# CONDITION: 293.15 K; 101 kPa; Liquid; controlled-strain rheometer (ARES-RFS, TA Instruments); w1 = 0.05
RESULT_TYPE: viscosity (mPa·s)

In [3]: df
Out[3]:
                                   compound  unit_descriptor  numeric_result
0  O=C[C@H](O)[C@@H](O)[C@H](O)[C@H](O)CO [D-glucose] + O            mPa·s            1.36
1  OC[C@H]1O[C@@](CO)(O[C@H]2O[C@H](CO)[C@@H](O)[C@H](O)[C@H]2O)[C@@H](O)[C@@H]1O [D-sucrose] + O            mPa·s           1.246
2  O=C[C@H](O)[C@@H](O)[C@@H](O)[C@H](O)CO [(+)-galactose] + O            mPa·s           1.397
3  O=C(CO)[C@@H](O)[C@H](O)[C@H](O)CO [D-fructose] + O            mPa·s            1.26
